# ASSAY_INFO: NCI Yeast Anticancer Drug Screen. Data for the cln2 rad14 strain (AID 165);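 further: 0% = growth equal to vehicle treated cultures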
# TEST_PARAMETERS: S. cerevisiae cln2 rad14 strain, at 50.0 µM, hits give high values
The panel holds about 79,000 compounds, 15% with a hit somewhere; the sample as a whole holds those more often.
ENDPOINT_NAME: growth inhibition (%)

INSERT INTO assay_data (compound, quantitative_readout) VALUES
  ('C/C(=N/S(=O)(=O)c1ccc(C)c(C)c1)OC(C)C', -55.1),
  ('CCOC(=O)C1=C(Nc2cccc3ccccc23)OC/C1=N\NC(=O)c1ccccc1O', 14.8),
  ('O=C(Nc1ccccc1)c1ccc(I)cc1', -7.35),
  ('CCNC(=S)NC1CCCCC1', -4.05),
  ('O=C(CN1CCCCC1)NC(=O)N/N=C\c1ccco1', -59),
  ('CN(C)CCC1(C2=CCCC2)CC/C(=C\c2ccccc2)C1=O (configuration not stated)', 14.7),
  ('O=C(O)CCC(NC(=O)/C(=C/c1ccccc1)NC(=O)c1ccccc1)C(=O)O (configuration not stated)', 8.75),
  ('COc1cccc(/C(CC(O)(C(F)(F)F)C(F)(F)F)=N\N(C)C)c1', -38.2),
  ('CC1=C(C(=O)Nc2ccc(Cl)c(C(=O)OC(C)C)c2)SCCO1', 4.05),
  ('CC(=O)c1nc(C#N)c(N)o1', 20.8),
  ('Cn1cnc2c(Oc3ccc(Cl)cc3)ncnc21', 8.85),
  ('O=C(O)c1cc(-c2ccccc2)nc2cc(Cl)ccc12', -9.35);

Recorded values, source PubChem BioAssay (NCI).
